// provenance: ChEMBL document CHEMBL1667852

Each record here notes measured pIC50.
- experimentalSystem: Vascular endothelial growth factor receptor 3 (Homo sapiens, UniProt P35916)
- Sequence (P35916 whole entry): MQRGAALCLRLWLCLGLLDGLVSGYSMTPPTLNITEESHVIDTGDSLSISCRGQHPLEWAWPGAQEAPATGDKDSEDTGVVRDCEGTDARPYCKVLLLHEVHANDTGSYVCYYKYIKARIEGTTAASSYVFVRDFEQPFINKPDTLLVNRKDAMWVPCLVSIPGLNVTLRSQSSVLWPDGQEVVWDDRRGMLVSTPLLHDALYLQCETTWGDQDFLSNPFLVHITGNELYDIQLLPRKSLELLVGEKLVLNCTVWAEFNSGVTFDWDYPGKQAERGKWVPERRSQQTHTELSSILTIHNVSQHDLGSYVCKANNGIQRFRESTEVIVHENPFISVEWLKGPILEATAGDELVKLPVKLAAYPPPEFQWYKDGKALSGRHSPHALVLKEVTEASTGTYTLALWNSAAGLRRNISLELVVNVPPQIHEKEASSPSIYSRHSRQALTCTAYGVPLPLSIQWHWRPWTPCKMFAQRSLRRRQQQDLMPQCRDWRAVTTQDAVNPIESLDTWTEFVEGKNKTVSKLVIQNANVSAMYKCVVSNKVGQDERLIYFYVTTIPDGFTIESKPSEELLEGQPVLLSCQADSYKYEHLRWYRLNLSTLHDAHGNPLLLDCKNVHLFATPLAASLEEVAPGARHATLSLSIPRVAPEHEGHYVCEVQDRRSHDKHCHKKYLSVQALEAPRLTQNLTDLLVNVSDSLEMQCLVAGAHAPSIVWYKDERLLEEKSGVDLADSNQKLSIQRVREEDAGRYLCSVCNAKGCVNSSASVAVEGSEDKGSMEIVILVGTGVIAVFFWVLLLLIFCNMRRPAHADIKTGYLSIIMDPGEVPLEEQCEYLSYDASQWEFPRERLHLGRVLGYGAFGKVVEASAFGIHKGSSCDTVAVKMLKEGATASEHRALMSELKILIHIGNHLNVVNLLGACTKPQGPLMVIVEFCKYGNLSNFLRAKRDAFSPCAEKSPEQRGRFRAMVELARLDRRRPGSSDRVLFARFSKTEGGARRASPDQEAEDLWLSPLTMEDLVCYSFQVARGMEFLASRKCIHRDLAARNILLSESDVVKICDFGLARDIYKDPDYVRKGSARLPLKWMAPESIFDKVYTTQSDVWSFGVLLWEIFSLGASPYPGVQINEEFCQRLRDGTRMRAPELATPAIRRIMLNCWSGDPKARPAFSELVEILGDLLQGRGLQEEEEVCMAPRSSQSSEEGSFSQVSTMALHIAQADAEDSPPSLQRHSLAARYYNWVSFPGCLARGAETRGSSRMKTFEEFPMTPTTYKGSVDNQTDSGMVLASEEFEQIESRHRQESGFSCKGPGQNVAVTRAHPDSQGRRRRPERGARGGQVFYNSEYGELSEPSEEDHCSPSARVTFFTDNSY
- measurementNotes: Inhibition of human recombinant VEGFR3 in cell free system after 90 mins
pIC50: −log10 of the molar value.
observedProperty: pIC50

INSERT INTO measurements (smiles, censoringsign, observedresult) VALUES
  ('COc1cc(O)c2c(c1)/C=C\CCCC(=O)C[C@H](Cl)C[C@H](C)OC2=O', '<', 4.00),
  ('COc1cc(O)c2c(c1)/C=C/CCCC(=O)/C=C/C[C@H](C)OC2=O', '=', 5.85),
  ('COc1cc(O)c2c(c1)/C=C/C[C@@H](O)[C@H](O)C(=O)/C=C\C[C@H](C)OC2=O', '=', 9.30),
  ('COc1cc(O)c2c(c1)CCCCCC(=O)/C=C\C[C@H](C)OC2=O', '=', 5.92),
  ('COc1cc(O)c2c(c1)/C=C/CCCC(=O)C[C@H](Cl)C[C@H](C)OC2=O', '<', 4.00),
  ('COc1cc(O)c2c(c1)/C=C\CCCC(=O)/C=C/C[C@H](C)OC2=O', '=', 5.80),
  ('COc1cc(O)c2c(c1)CCCCCC(=O)/C=C/C[C@H](C)OC2=O', '=', 6.14);

---

Each record here notes measured pIC50.
- experimentalSystem: Mitogen-activated protein kinase 3 (Homo sapiens, UniProt P27361)
- Sequence (P27361 whole entry): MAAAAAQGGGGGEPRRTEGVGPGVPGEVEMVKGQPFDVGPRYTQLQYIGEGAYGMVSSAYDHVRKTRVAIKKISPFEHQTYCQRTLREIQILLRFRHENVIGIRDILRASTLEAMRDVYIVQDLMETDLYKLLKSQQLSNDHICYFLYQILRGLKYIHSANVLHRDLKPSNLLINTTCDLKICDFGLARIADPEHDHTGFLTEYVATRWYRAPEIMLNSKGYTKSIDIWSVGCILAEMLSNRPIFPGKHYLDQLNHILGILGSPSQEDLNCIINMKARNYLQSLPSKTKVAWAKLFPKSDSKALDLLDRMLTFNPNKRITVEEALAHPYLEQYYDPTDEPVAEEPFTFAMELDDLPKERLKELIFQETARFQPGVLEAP
- measurementNotes: Inhibition of human recombinant ERK1 expressed in E.coli after 30 mins
pIC50: −log10 of the molar value.
observedProperty: pIC50

INSERT INTO assay_data (smiles, experimentalsystem, observedproperty, observedresult) VALUES
  ('COc1cc(O)c2c(c1)CCCCCC(=O)/C=C/C[C@H](C)OC2=O', 'Mitogen-activated protein kinase 3 (Homo sapiens, UniProt P27361)', 'pIC50', '< 4.00'),
  ('COc1cc(O)c2c(c1)/C=C/C[C@@H](O)[C@H](O)C(=O)/C=C\C[C@H](C)OC2=O', 'Mitogen-activated protein kinase 3 (Homo sapiens, UniProt P27361)', 'pIC50', 5.85),
  ('COc1cc(O)c2c(c1)/C=C/CCCC(=O)/C=C/C[C@H](C)OC2=O', 'Mitogen-activated protein kinase 3 (Homo sapiens, UniProt P27361)', 'pIC50', '< 4.00');

---

- experimentalSystem: Platelet-derived growth factor receptor alpha (Homo sapiens)
- Sequence (P16234 whole entry): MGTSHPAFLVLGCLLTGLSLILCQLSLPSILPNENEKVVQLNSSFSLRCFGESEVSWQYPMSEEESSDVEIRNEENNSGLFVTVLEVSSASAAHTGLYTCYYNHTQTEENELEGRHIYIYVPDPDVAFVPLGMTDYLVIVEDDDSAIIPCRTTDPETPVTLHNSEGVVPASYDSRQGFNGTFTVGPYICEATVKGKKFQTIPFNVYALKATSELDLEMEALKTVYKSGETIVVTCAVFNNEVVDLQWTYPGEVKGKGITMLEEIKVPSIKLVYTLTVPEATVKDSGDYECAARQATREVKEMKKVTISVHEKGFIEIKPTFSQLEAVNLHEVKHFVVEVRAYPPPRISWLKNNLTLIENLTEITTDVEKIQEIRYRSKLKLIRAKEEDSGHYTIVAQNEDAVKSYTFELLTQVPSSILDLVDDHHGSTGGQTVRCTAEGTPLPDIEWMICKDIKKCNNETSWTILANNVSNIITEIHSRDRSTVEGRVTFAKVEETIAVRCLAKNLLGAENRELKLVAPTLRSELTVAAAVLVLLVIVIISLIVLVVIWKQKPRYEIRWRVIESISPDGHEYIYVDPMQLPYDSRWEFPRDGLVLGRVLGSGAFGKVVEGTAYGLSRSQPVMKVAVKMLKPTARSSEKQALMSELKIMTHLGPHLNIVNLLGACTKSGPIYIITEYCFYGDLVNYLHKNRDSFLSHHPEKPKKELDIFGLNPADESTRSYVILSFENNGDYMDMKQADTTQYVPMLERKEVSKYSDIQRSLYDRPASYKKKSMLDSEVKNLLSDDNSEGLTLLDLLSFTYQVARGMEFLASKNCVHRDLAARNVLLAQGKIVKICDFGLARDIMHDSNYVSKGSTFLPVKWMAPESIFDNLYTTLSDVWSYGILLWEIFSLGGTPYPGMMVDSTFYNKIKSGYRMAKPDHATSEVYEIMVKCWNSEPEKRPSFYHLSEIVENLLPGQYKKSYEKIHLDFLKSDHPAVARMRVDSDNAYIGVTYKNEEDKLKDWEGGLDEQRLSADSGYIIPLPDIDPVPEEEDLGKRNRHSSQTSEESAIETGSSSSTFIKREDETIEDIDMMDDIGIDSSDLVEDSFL
- measurementNotes: Inhibition of human recombinant PDGFRalpha in cell free system after 60 mins
pIC50: −log10 of the molar value.
observedProperty: pIC50

INSERT INTO measurements (smiles, experimentalsystem, observedproperty, observedresult) VALUES
  ('COc1cc(O)c2c(c1)CCCCCC(=O)/C=C/C[C@H](C)OC2=O', 'Platelet-derived growth factor receptor alpha (Homo sapiens)', 'pIC50', 7.05),
  ('COc1cc(O)c2c(c1)CCCCCC(=O)/C=C\C[C@H](C)OC2=O', 'Platelet-derived growth factor receptor alpha (Homo sapiens)', 'pIC50', 6.36),
  ('COc1cc(O)c2c(c1)/C=C\CCCC(=O)/C=C/C[C@H](C)OC2=O', 'Platelet-derived growth factor receptor alpha (Homo sapiens)', 'pIC50', 6.35),
  ('COc1cc(O)c2c(c1)/C=C/CCCC(=O)/C=C/C[C@H](C)OC2=O', 'Platelet-derived growth factor receptor alpha (Homo sapiens)', 'pIC50', 7.57),
  ('COc1cc(O)c2c(c1)/C=C/C[C@@H](O)[C@H](O)C(=O)/C=C\C[C@H](C)OC2=O', 'Platelet-derived growth factor receptor alpha (Homo sapiens)', 'pIC50', 9.62);
